Known binding signal of a selection of sequences
# Test system: MBP-FoxP1dN (Mus musculus, UniProt P58462 326-579)
# Sequence: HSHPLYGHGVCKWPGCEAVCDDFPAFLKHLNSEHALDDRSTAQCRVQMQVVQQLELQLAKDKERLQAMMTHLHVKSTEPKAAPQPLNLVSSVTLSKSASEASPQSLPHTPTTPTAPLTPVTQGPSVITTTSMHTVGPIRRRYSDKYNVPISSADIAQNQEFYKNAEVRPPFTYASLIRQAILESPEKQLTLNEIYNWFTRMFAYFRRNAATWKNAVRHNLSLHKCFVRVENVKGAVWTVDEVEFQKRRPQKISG
# Protocol notes: PD-seq (MBP pull-down with sequencing); 20 mM Tris-HCl pH 7.5, 100 mM NaCl, 1.5 mM MgCl2, 0.4 uM protein, 0.1 uM dsDNA library, 30 min, room temperature, amylose pull-down; high values mean tight binding
# Setup conditions: protein: recombinant; tags: His6-MBP; chain copies: 2; dsDNA, one strand shown
Over roughly 16,000 sequences, “rpm ratio (pull-down/input)” has its median near 0.94; the highest 2% begin near 1.7. This excerpt belongs to a sample that is enriched for the highest values.

Below, 5 sequences whose answers are already recorded.
# Seq, Recorded endpoint, Result
rows = [
    ("GATGATTGTTCTCCCAGCTGATGAATTGTTATAATCGAGTAAACAAATTTTCCTAATCTTTCTGTTCAAGCGCCATCTAC", "binding signal", "1.59 RPM ratio (pull-down/input)"),
    ("GATGATTGTTCTCCCAGCTGATGAATTTATGTGATCGAGTAAACAAATTTTCCTAATCTTTCTGTTCAAGCGCCATCTAC", "binding signal", "1.21 RPM ratio (pull-down/input)"),
    ("GATGATTGTTCTCCCAGCTGATGAATTATTGATGTCGAGTAAACAAATTTTCCTAATCTTTCTGTTCAAGCGCCATCTAC", "binding signal", "1.85 RPM ratio (pull-down/input)"),
    ("GATGATTGTTCTCCCAGCTGATGAATTTGGCAGCTCGAGTAAACAAATTTTCCTAATCTTTCTGTTCAAGCGCCATCTAC", "binding signal", "0.875 RPM ratio (pull-down/input)"),
    ("GATGATTGTTCTCCCAGCTGATGAATTGATTATGTCGAGTAAACAAATTTTCCTAATCTTTCTGTTCAAGCGCCATCTAC", "binding signal", "1.31 RPM ratio (pull-down/input)"),
]

Ask | Could you share which binding signal value was measured for `GATGATTGTTCTCCCAGCTGATGAATTATTGTCGTCGAGTAAACAAATTTTCCTAATCTTTCTGTTCAAGCGCCATCTAC` ?
Reply | 1.56 RPM ratio (pull-down/input)

Ask | Could you share which binding signal value was measured for `GATGATTGTTCTCCCAGCTGATGAATTGTTTATATCGAGTAAACAAATTTTCCTAATCTTTCTGTTCAAGCGCCATCTAC` ?
Reply | 2.47 RPM ratio (pull-down/input)

Ask | Could you share which binding signal value was measured for `GATGATTGTTCTCCCAGCTGATGAATTATTAATGTCGAGTAAACAAATTTTCCTAATCTTTCTGTTCAAGCGCCATCTAC` ?
Reply | 1.35 RPM ratio (pull-down/input)

Ask | Could you share which binding signal value was measured for `GATGATTGTTCTCCCAGCTGATGAATTGCGTGCCTCGAGTAAACAAATTTTCCTAATCTTTCTGTTCAAGCGCCATCTAC` ?
Reply | 1.09 RPM ratio (pull-down/input)

Ask | Could you share which binding signal value was measured for `GATGATTGTTCTCCCAGCTGATGAATTGTGTTTATCGAGTAAACAAATTTTCCTAATCTTTCTGTTCAAGCGCCATCTAC` ?
Reply | 2.92 RPM ratio (pull-down/input)

// data source = paper PMC12820563
